Cited source: the supplement of paper PMC9170038

test system: MS2 coat protein; experiment: apparent KD of MS2 coat protein; designed switch direction (-1 OFF switch, 1 ON switch): 1; higher = weaker reporter binding; settings: Eterna round: R95; input ligand: FMN 200 uM
Consider the following sequences; for each one, report its apparent KD of MS2 coat protein.
One number for each entry, in nM.

Provide reported apparent KD of MS2 coat protein for each item, in the same order as listed.
1. AGUCCAGCCUAAGCUGGACAAAAGCAUGUACAUGAGGAUCACCCAUGUUCAUGUACAAGCUUUUUGCAAGUCAAAAG [Mat - hsa-mir-208a - Mod of JL - 76] (puzzle: Sensor for hsa-mir-208a)
2. GUUAUACAUGAGGAUCACCCAUGUCAAUGUAGUCGAGGAUAUGGGUUGCUAUGAGGCGUACUAGAAGGCGAGGAGU [JL-ss1-3.17 ViennaUCT mod] (puzzle: Same State 1)
3. AGUCCAGCGAAAGCUGGACAAAAGCAUGUACAUGAGGAUCACCCAUGUUCGUGUACAAGCUUUUUGCUCGUCUUAAA [JL mod - D95 - 5] (puzzle: Sensor for hsa-mir-208a)
4. CCCAUGAAUAGUCAGGAUAUACGAUUUUAUACAUGAGGAUCACCCAUGUUAAGACUCCUCAAUAAGUAGAAGGGACUAUUUAUAA [Tesla Same State 2] (puzzle: Same State 2)
5. AGUCCAGCCUAAGCUGGACAAAAGCAUGUACAUGAGGAUCACCCAUGUUCAUGUACAAGCUUUUUGCUCGUCUUAAG [Mat - hsa-mir-208a - Mod of JL - 65] (puzzle: Sensor for hsa-mir-208a)

Response:
[350, 297, 536, 154, 864]
